The values you see were collected from ChEMBL document CHEMBL1201862.

System: UO-31
TEST_DESCRIPTION: NCI tumour cell line growth inhibition, 48 h
Active and inactive are the calls of the source. No stated cut-off is given here; in the data, active = GI50 up to about 1.1 µM and inactive = higher.
Return exactly one item of Yes = active, No = inactive

Query :: Short answer needed: outcome of this test for CCOc1cc(/C=C2\N=C(c3ccccc3)N(c3nc4ccccc4s3)C2=O)ccc1O ?
Result :: No

Query :: Short answer needed: outcome of this test for O=C(O)CCO/N=C1/C(=C2/C(=O)Nc3ccccc32)Nc2ccccc21 ?
Result :: No

Query :: Short answer needed: outcome of this test for CCN(CC)CCSc1c2ccccc2nc2c(OC)ccc(OC)c12 ?
Result :: No

Query :: Short answer needed: outcome of this test for O=C(O)C1C2CCC(O2)C1C(=O)NCc1cccnc1 (configuration not stated) ?
Result :: No

Query :: Short answer needed: outcome of this test for CS(=O)(=O)c1ccc(-c2cc(-c3ccc(S(C)(=O)=O)cc3)[n+](-c3cc(-c4ccc(S(C)(=O)=O)cc4)c([O-])c(-c4ccc(S(C)(=O)=O)cc4)c3)c(-c3ccc(S(C)(=O)=O)cc3)c2)cc1 ?
Result :: No

Query :: Short answer needed: outcome of this test for C/C(=N\NC(=S)NC(CCC(=O)O)C(=O)O)c1ccccn1 (configuration not stated) ?
Result :: No

Query :: Short answer needed: outcome of this test for N#Cc1cc(C#N)c(Cl)nc1N ?
Result :: Yes
